# system_under_test: T1, human SIRP-α v2 D1 domain (human)
# T1 construct: also called human v2; human α v2
# procedure_summary: SPR, antibody immobilised on GLC chip
test_readout: pKd
pKd is defined as minus the log10 of a concentration measured in mol/L.

The reported pKd of the binder antibody 136 variant Mut/mut (antibody, human IgG1, V domains shown, Human IgG1 with L234A/L235A/G237A/N297A; Labels are light chain/heavy chain) VH: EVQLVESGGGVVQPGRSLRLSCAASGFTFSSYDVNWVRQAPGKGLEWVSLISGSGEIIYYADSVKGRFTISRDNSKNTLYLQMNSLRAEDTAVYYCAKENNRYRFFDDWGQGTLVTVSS VL: EIVLTQSPGTLSLSPGERATLSCRASQSVYTYLAWYQQKPGQAPRLLIYGASSRATGIPDRFSGSGSGTEFTLTISSLQSEDFAVYYCQQYYDRPPLTFGGGTKVEIK was 7.90
